- SUBJECT OF TEST: Bcl-xL-Beclin 1 complex (Homo sapiens)
- Construct: made in house
- TEST SUMMARY: Concentration response FP reconfirmation of HTS hits
- Type: binding
- CONDITION LABEL: 5 μM; hits of first screen; read-out: Dose-response (% Inhibition) 5 μM
Counter-ions that a name gives are not always drawn.
# inhibition at 5 µM listing for each entry below

Consider the following illustrative entries.
[[record]]
compound = "CC1=NCCc2c1[nH]c1cc(O)ccc21 [Compound A28, HARMALOL HYDROCHLORIDE]"
observed_value = "19.2%"

[[record]]
compound = "O=C(O)c1cc(O)c2c(c1)[C@@H]([C@H]1c3cc(C(=O)O)cc(O)c3C(=O)c3c(O[C@@H]4O[C@H](CO)[C@@H](O)[C@H](O)[C@H]4O)cccc31)c1cccc(O[C@@H]3O[C@H](CO)[C@@H](O)[C@H](O)[C@H]3O)c1C2=O [Compound A35, SENNOSIDE B]"
observed_value = "2.7%"


q: Item COc1cccc2c1C(=O)c1c(O)c3c(c(O)c1C2=O)C[C@@](O)(C(=O)CO)C[C@@H]3O[C@H]1C[C@H](N)[C@H](O)[C@H](C)O1 [Compound A25, DOXORUBICIN HYDROCHLORIDE] has what recorded inhibition at 5 µM?
a: 18.9%

q: Item O=C1c2cccc(O)c2C(=O)c2c(O)cccc21 has what recorded inhibition at 5 µM?
a: -1.2%

q: Item COC(=O)Nc1nc2ccc(Sc3ccccc3)cc2[nH]1 has what recorded inhibition at 5 µM?
a: -3.4%

q: Item CCc1oc2ccccc2c1C(=O)c1cc(Br)c(O)c(Br)c1 has what recorded inhibition at 5 µM?
a: 0.2%

====

- SUBJECT OF TEST: Bcl-xL-Beclin 1 complex (Homo sapiens, UniProt Q07817)
- Construct: made in house
- Sequence (Q07817 whole entry, one chain of several): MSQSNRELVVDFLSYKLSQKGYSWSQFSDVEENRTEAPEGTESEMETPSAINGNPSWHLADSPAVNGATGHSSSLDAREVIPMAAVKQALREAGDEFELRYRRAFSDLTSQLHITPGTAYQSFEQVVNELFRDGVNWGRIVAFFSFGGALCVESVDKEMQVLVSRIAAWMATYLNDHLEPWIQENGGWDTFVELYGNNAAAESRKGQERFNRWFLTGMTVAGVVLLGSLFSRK
- TEST SUMMARY: FP-based high-throughput screening, primary screen
- Type: binding
- CONDITION LABEL: first screen; 40 μM compound, 2.5 μM Bcl-xL, 400 nM 20-mer
Structures can show the parent of a compound that is named as a salt.
PROPERTY NAME: inhibition at 40 µM (%)
Give a bare numeral; the unit % is implied.

[[record]]
molecule = "COc1cccc2c1C(=O)c1c(O)c3c(c(O)c1C2=O)C[C@@](O)(C(=O)CO)C[C@@H]3O[C@H]1C[C@H](N)[C@@H](O)[C@H](C)O1 [Compound A24, EPIRUBICIN HYDROCHLORIDE]"
subject_of_test = "Bcl-xL-Beclin 1 complex (Homo sapiens, UniProt Q07817)"
observed_value = 22.8

[[record]]
molecule = "COc1cccc2c1C(=O)c1c(O)c3c(c(O)c1C2=O)C[C@@](O)(C(C)=O)C[C@@H]3O[C@H]1C[C@H](N)[C@H](O)[C@H](C)O1"
subject_of_test = "Bcl-xL-Beclin 1 complex (Homo sapiens, UniProt Q07817)"
observed_value = 45.8

[[record]]
molecule = "CCc1oc2ccccc2c1C(=O)c1cc(Br)c(O)c(Br)c1"
subject_of_test = "Bcl-xL-Beclin 1 complex (Homo sapiens, UniProt Q07817)"
observed_value = 9.05

[[record]]
molecule = "CCCCCc1c2c(cc(O)c1C(=O)O)OC(=O)c1c(cc(OC)cc1C(=O)CCCC)O2"
subject_of_test = "Bcl-xL-Beclin 1 complex (Homo sapiens, UniProt Q07817)"
observed_value = 7.13

[[record]]
molecule = "O=C(O)C1=CC(=C(c2ccc(O)c(C(=O)O)c2)c2ccc(O)c(C(=O)O)c2)C=CC1=O"
subject_of_test = "Bcl-xL-Beclin 1 complex (Homo sapiens, UniProt Q07817)"
observed_value = 6.76

[[record]]
molecule = "O=C1C(Cl)=C(Cl)C(=O)C(Cl)=C1Cl"
subject_of_test = "Bcl-xL-Beclin 1 complex (Homo sapiens, UniProt Q07817)"
observed_value = 27.8


Read the next record carefully.
q: Provide value of inhibition at 40 µM for this record tested with Bcl-xL-Beclin 1 complex (Homo sapiens, UniProt Q07817): CCOc1ccc2nc3cc(N)ccc3c(N)c2c1 [Compound A15, ETHACRIDINE LACTATE]
a: 37.9

Cited source: paper PMC5584254
